system: UACC-257 melanoma; assay: NCI tumour cell line growth inhibition, 48 h
Attribute measured: GI50

In [3]: df
Out[3]:
                                   molecule       study_system  attribute_measured  endpoint_result
0  O=C(NC1CC1)c1ccc(-c2nc3ccc4[nH]ncc4c3c3c2CCCC3)cc1  UACC-257 melanoma                GI50           9.1 µM

Problem: Which GI50 value belongs to CC(=O)C1CC2(c3ccc(C)cc3)C(c3ccc(C)cc3)=C(c3ccc(C)cc3)C1(c1ccc(C)cc1)S2=O (stereo not drawn) ?
Solution: > 100 µM

Problem: Can you look up the measured GI50 of COc1cc(Cl)cc(-c2nn(C(=O)NCCN3CCN(C)CC3)cc2-c2ccncc2)c1 for me?
Solution: 20.5 µM

###

tested on: SK-MEL-2 melanoma; experiment: NCI tumour cell line growth inhibition, 48 h
Attribute measured: TGI

>>> df
                                   compound       study_system  endpoint_result
0  O=[N+]([O-])c1ccc(Sc2c3ccccc3nc3ccccc23)cc1  SK-MEL-2 melanoma         > 100 µM

Problem: Entry under review: NNC(=Nc1ccccc1)SCc1ccccc1 . Reported TGI?
Solution: > 100 µM

Problem: // lookup TGI for CC(=O)N1CC(C)(C)c2c1cc(C)c(O)c2C
Solution: > 100 µM

Problem: Recorded TGI of O=C1CCCCCCCC/C=C/CCC(c2ccco2)O1 (stereo not given) , please.
Solution: > 100 µM

Problem: // query TGI value for entry c1cc2c(cc1C(N1CCNCC1)N1CCNCC1)OCO2
Solution: > 100 µM

Problem: Endpoint output: TGI of CC(=O)C1CC2(c3ccc(C)cc3)C(c3ccc(C)cc3)=C(c3ccc(C)cc3)C1(c1ccc(C)cc1)S2=O (stereo not given) . Value?
Solution: > 100 µM

Problem: Item NC(Cc1ccccc1)=NCC(=O)O has what recorded TGI?
Solution: > 100 µM

Problem: Quick check: TGI of N#Cc1ccccc1NC(=O)/C(=N\NC(=O)c1ccncc1)C(c1cnc2ccc([N+](=O)[O-])cc2n1)[N+](=O)[O-] (stereo not given) ?
Solution: > 100 µM

Problem: Tell me the measured TGI of Cc1nc2c(=O)[nH]c(=O)n(C)c2[nH]c1=O , please.
Solution: > 100 µM

Problem: Which TGI is reported for this compound? O=C(Nc1ccccc1)c1cc(S(=O)(=O)Nc2n[nH]c(=O)[nH]2)c(SSc2cc(Cl)c(C(=O)Nc3ccccc3)cc2S(=O)(=O)Nc2n[nH]c(=O)[nH]2)cc1Cl
Solution: > 100 µM

###

Measured TGI of individual entries
system: 786-0 renal; assay: NCI tumour cell line growth inhibition, 48 h

Check out these entries, answers already filled in.
>>> df
                                   compound  endpoint_result
0                     c1ccc2c(c1)nc1n2CCNC1         > 100 µM
1  COc1ccc(C2S/C(=C\c3cc(OC)c(OC)c(OC)c3)C(=O)N2NC(=O)Cc2ccccc2)cc1 (stereo unspecified)         > 100 µM
2  CC(=O)C1CC2(c3ccc(C)cc3)C(c3ccc(C)cc3)=C(c3ccc(C)cc3)C1(c1ccc(C)cc1)S2=O (stereo unspecified)         > 100 µM
3  COc1ccc(C[C@H]2NC(=O)/C=C/C[C@@H]([C@H](C)[C@H]3O[C@@H]3c3ccccc3)OC(=O)[C@H](CC(C)C)OC(=O)[C@H](C)CNC2=O)cc1      > 0.0001 µM

Problem: Returns the measured TGI for the input compound. Input: CCSCC(=O)N1CCc2c([nH]c3ccccc23)C1=O
Solution: > 100 µM

Problem: I am curious: what TGI value has been reported for COc1ccc(-c2cc(C3CC3)nc(SCC(=O)O)c2C#N)cc1 ?
Solution: > 100 µM

Problem: Item CC1(C)CC(=O)C2=C(C1)NC(SCC(=O)O)=C(C#N)C2c1ccc(Br)cc1 (stereo unspecified) has what recorded TGI?
Solution: > 100 µM

Problem: Name the recorded TGI for COc1c(C)c2c(c(O)c1C/C=C(\C)CCC(=O)OCCN1CCOCC1)C(=O)OC2 .
Solution: > 100 µM

Problem: Would you mind telling me what TGI value was observed for CC(=O)Nc1nc(SCc2ccccc2)c2ncn(C(C)=O)c2n1 ?
Solution: > 100 µM

Problem: Entry CN(C)NC1=NS(=O)(=O)c2cc3c(cc2S1)N(N(C)C)C(=O)c1cc2c(cc1N(N(C)C)C3=O)SC(NN(C)C)=NS2(=O)=O : reported TGI = ?
Solution: > 10 µM

Problem: Item under review: O=C(Nc1ccc(Cl)cc1)c1cccc([N+](=O)[O-])c1O . Reported TGI?
Solution: > 56.7 µM

Problem: Suppose we examine the compound CC(C)(C)C(=O)Nc1ccccc1I(=O)=O ; what TGI value has been reported?
Solution: > 100 µM

Problem: Using the record for CC1(C)NCCC[C@]2(C)[C@H]3C=CC4=C5C[C@](C)(CO)CC[C@]5(C)CC[C@@]4(C)[C@]3(C)CC[C@@H]12 , report its TGI.
Solution: 8.59 µM

Problem: If you can, please state the reported TGI value of O=[N+]([O-])c1ccc(-c2nc(N(CCO)CCO)c3ccccc3n2)o1 .
Solution: 0.621 µM

Problem: Name the reported TGI value associated with the compound O=C1C(Cl)=C(Oc2ccc([N+](=O)[O-])cc2)C(=O)c2c(O)ccc(O)c21
Solution: > 100 µM

Problem: Recorded TGI for CCN(CC)c1ccc2c(c1)Oc1ccc(N(C(C)=O)c3ccccc3)cc1C21OC(=O)c2ccccc21 (stereo unspecified) , please?
Solution: > 100 µM

Problem: Any idea what its TGI is? The compound is CC(=O)c1cc2c(s1)C(=O)c1scc(C(C)=O)c1C2=O
Solution: 1.9 µM

###

system: RPMI-8226 leukemia; test: NCI tumour cell line growth inhibition, 48 h
Attribute measured: GI50

Problem: Item CC([C@H]1CCC2C3CCC4C[C@@H](NC=O)CC[C@]4(C)C3CC[C@@]21C)N(C)C (stereo partly specified) has what recorded GI50?
Solution: 1.91 µM

Problem: Look at this molecule and give its reported GI50. N#CC1=C(N)NC(=S)NC12Nc1ccccc1O2 (stereo unspecified)
Solution: 21.9 µM

Problem: Item under review: C=C1C(=O)O[C@@H]2C1C[C@@H](O)/C(C)=C/C/C=C(\C)CCC[C@H](C)[C@H]2OC(C)=O (stereo partly specified) . Reported GI50?
Solution: 24.9 µM

Problem: Which GI50 value belongs to O=C1CCCCCCCC/C=C/CCC(c2ccco2)O1 (stereo unspecified) ?
Solution: 13.6 µM

Problem: Reported GI50 for CCCCCNC(=O)[C@@H]1CCCN2C(=O)CC[C@H](NC(=O)[C@H](Cc3ccc(OP(=O)(O)O)cc3)NC(C)=O)C(=O)N12 : what is it?
Solution: > 25 µM

Problem: I'd like to know its GI50. The molecule in question is CCOC(=O)CCCn1c(SC)nc2cc(-c3ccco3)[nH]c2c1=O
Solution: > 100 µM

###

system: MDA-N; test: NCI tumour cell line growth inhibition, 48 h
Attribute measured: TGI

In [3]: df
Out[3]:
                                   molecule  endpoint_result
0               C=C(Cl)COC(=O)Nc1cccc(Cl)c1         > 100 µM
1                           CN(C)CCCN=C(N)N         > 100 µM
2  COC(=O)C1=C(O)C(C(=O)OC)[C@]2(O)[C@H](C(=O)OC)[C@H]1C[C@@H](c1cccc(OC)c1)[C@H]2C(=O)OC (stereo partly specified)          64.4 µM
3      O=C1C=C(N2CCCC2)C(=O)c2c(O)ccc(O)c21          > 10 µM
4  C=CCn1c(-c2ccccc2)cs/c1=N\C(P(=O)(O)O)P(=O)(O)O         > 100 µM

Now let's try a different one.
Problem: Item O=C1c2n[nH]nc2C(=O)c2n[nH]nc21 has what recorded TGI?
Solution: > 100 µM

###

test system: CAKI-1 renal; assay: NCI tumour cell line growth inhibition, 48 h; in the data active = GI50 below about 0.43 µM; inactive = the rest
Please answer using one outcome listed in YES for active, NO for inactive

The examples below pair each entry with its known result.
>>> df
                                   compound  study_system  class_assignment
0      c1ccc2[nH]c(SSc3nc4ncncc4[nH]3)nc2c1  CAKI-1 renal               YES
1  CC(=O)Nc1nc(SCc2ccccc2)c2ncn(C(C)=O)c2n1  CAKI-1 renal                NO
2  N#CC1=C(N)NC(=S)NC12Nc1ccccc1O2 (centres undefined)  CAKI-1 renal                NO

Kindly review the next compound as well.
Problem: State the result this test recorded for CCOC(=O)CCCn1c(SC)nc2cc(-c3ccco3)[nH]c2c1=O .
Solution: NO
